Test system: human plasma proteins
assay-summary: Human plasma protein binding assay (equilibrium dialysis)
Type: in vitro ADME
measurement-conditions: 1 μM, 2 hours, 37° C.
outcome-measure: Hu PPB

> print(dat)
                                   compound            test.target  recorded.measurement
1  O=C(NC1CNCC1(F)F)c1nccnc1N1CC(Oc2cc(F)c(F)c(F)c2)C1 (racemic) [Intermediate H-3]  human plasma proteins          88.2 % bound
2  CC(=O)N1CC[C@@H](NC(=O)c2nsnc2N2CC(Oc3cc(F)cc(F)c3)C2)C1 [Example 15a]  human plasma proteins          90.2 % bound
3  CC(=O)N1CC(F)C(NC(=O)c2nsnc2N2CC(Oc3ccc(F)c(F)c3)C2)C1 (single isomer, unassigned) [Example 14b]  human plasma proteins          89.7 % bound

* * *

test-target: human GPR52 (Homo sapiens (Human), UniProt Q9Y2T5)
Sequence (Q9Y2T5 whole entry): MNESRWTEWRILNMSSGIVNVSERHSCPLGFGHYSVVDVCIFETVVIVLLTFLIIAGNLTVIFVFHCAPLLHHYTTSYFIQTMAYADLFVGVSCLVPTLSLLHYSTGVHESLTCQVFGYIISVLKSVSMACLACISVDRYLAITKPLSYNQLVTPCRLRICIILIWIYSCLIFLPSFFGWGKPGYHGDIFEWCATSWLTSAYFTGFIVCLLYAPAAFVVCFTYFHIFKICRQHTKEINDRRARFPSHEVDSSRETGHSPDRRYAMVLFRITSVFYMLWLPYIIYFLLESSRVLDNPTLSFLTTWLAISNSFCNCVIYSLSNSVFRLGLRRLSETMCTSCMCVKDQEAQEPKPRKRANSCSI
assay-summary: HTRF assay for direct cAMP measurement
measurement-conditions: CHO-K1 cells stably expressing recombinant human GPR52, mean EC50
Protocol: HTRF cAMP assays were performed using commercially available assay kits according to the manufacturer's instructions (cAMP Dynamic 2 Assay Kit; #62AM4PEJ, Cisbio Bioassays, Bedford, MA). […] Plates were then incubated at room temperature for one hour prior to reading. Time-resolved fluorescence measurements were collected on an EnVision® HTRF plate reader (PerkinElmer, Waltham, MA). […] The % control was calculated based on the positive control set at 200% and the negative control set at 100%. […]
pEC50: −log10 of the molar value.
outcome-measure: pEC50

> print(dat)
                                    compound  recorded.measurement
 1  CC(=O)N1CC(NC(=O)c2nccnc2N2CC(Oc3cc(F)cc(OC(F)F)c3)C2)C(F)(F)C1 (racemic) [Example 7]                  6.99
 2  CC(=O)N1C[C@@H](NC(=O)c2nccnc2N2CC(Oc3cc(F)cc(F)c3)C2)C(F)(F)C1 [Example 10b]                  5.88
 3  CC(=O)N1CC(NC(=O)c2nccnc2N2CC(Oc3ccc(F)c(Cl)c3)C2)C(F)(F)C1 (racemic) [Example 1]                  7.82
 4  O=C(NC1CNCC1(F)F)c1nccnc1N1CC(Oc2cc(F)c(F)c(F)c2)C1 (racemic) [Intermediate H-3]                  6.42
 5  CC(=O)N1CC2(NC(=O)c3nsnc3N3CC(Oc4cc(F)c(F)c(F)c4)C3)CC1C2 [Example 12]                  7.62
 6  CC(=O)N1CC[C@@H](NC(=O)c2nsnc2N2CC(Oc3cc(F)cc(F)c3)C2)C1 [Example 15a]                  7.70
 7  CC(=O)N1CC(F)C(NC(=O)c2nsnc2N2CC(Oc3ccc(F)c(F)c3)C2)C1 (single isomer, unassigned) [Example 14a]                  5.93
 8  CC(=O)N1CCC(NC(=O)c2nsnc2N2CC(Oc3ccc(F)c(F)c3)C2)C1 (centres unmarked) [Example 16a]                  7.96
 9  CCC(=O)N1CC(NC(=O)c2nccnc2N2CC(Oc3ccc(F)c(F)c3)C2)C(F)(F)C1 (centres unmarked) [Example 2]                  7.62
10  CC(=O)N1CC(NC(=O)c2nccnc2N2CC(Oc3cc(F)cc(C(F)F)c3)C2)C(F)(F)C1 (centres unmarked) [Example 6]                  7.27
11  CC(=O)N1CC[C@H](NC(=O)c2nsnc2N2CC(Oc3cc(F)cc(F)c3)C2)C1 [Example 15b]                  6.77

* * *

System: human hepatocytes
assay-summary: Metabolic stability in human hepatocytes
Assay type: in vitro ADME
measurement-conditions: human hepatocyte suspension, 1 μM; predicted hepatic clearance as percentage of hepatic blood flow
outcome-measure: Human HepStab

> print(dat)
                                   compound  recorded.measurement
1  CC(=O)N1CC(F)C(NC(=O)c2nsnc2N2CC(Oc3ccc(F)c(F)c3)C2)C1 (stereo not drawn) [Example 14b]             <4.1 % QH
2  CC(=O)N1C[C@H](NC(=O)c2nsnc2N2CC(Oc3ccc(F)c(F)c3)C2)C(F)(F)C1 [Example 13b]             <4.1 % QH
3  CC(=O)N1CCC(NC(=O)c2nsnc2N2CC(Oc3ccc(F)c(F)c3)C2)C1 (stereo not drawn) [Example 16a]             <4.1 % QH
